experimental target: HIV Env of isolate Q461.e2 (clade A) (HIV)
experiment: cell-based or functional assay
assay endpoint: IC80 (µg/ml) with constrains (µg/mL)
One number for each entry, in µg/mL.

Sure, the documented IC80 (µg/ml) with constrains for ePGDM5 (antibody, V domains shown) VH: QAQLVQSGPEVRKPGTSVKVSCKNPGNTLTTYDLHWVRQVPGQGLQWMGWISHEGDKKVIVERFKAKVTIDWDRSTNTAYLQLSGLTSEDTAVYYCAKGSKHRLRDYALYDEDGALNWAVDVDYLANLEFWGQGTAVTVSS VL: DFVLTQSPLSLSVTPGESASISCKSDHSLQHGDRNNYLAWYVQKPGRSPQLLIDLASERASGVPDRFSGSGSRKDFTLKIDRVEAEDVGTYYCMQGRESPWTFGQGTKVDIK is 0.415
